Data provenance is patent US6169181A.

- experimental_system: HIV-1 protease (Human immunodeficiency virus type 1 group M subtype B)
- test_method_notes: biochemical
- protocol_conditions: Table II; enzyme HIV-1; DOSE 1.100 (unit not given)
- Method: The HIV protease screening assay is based on fluorescently labeled substrate which can be resolved from nonlabeled cleavage product using special beads coated with streptavidin. […] The labeled cleavage product is separated from the unreacted substrate via filtration and is read on the Idexx screen machine. The data are analyzed by appropriate computer algorithms to ascertain percent inhibition values.
measurement_label: PROTEASE % INHIB. (%)
Write it as a number; the unit % goes unstated.

Here are 3 compounds together with their reported answers.
# compound, data_value
measured = [
    ("CCC[C@@]1(CCc2ccc(F)cc2)CC(O)=C([C@@H](c2cccc(NS(=O)(=O)c3ccc(C#N)cn3)c2)C(C)(C)C)C(=O)O1 (single isomer, unassigned)", 101.67),
    ("CC(C)(C)C(C1=C(O)CC(CCc2ccccc2)(CCc2ccccc2)OC1=O)c1cccc(NS(=O)(=O)c2ccc(C#N)cn2)c1 (stereo not shown)", 81.17),
    ("CC(C)CC1(CC(C)C)CC(O)=C(C(c2cccc(NS(=O)(=O)c3ccc(C#N)cn3)c2)C(C)(C)C)C(=O)O1 (racemic)", 89.3),
]

Request: What does the record list as PROTEASE % INHIB. for Cn1cnc(S(=O)(=O)Nc2cccc(C(C3=C(O)CC(CCc4ccccc4)(CCC(F)(F)F)OC3=O)C(C)(C)C)c2)c1 (single isomer, unassigned) [Example 270] ?
Result: 93.45

Request: What does the record list as PROTEASE % INHIB. for CCCC1(CCc2ccccc2)CC(O)=C(C(c2cccc(NS(=O)(=O)c3cn(C)cn3)c2)C(C)(C)C)C(=O)O1 (single isomer, unassigned) ?
Result: 107.87

Request: What does the record list as PROTEASE % INHIB. for CCCC1(CCc2ccc(F)cc2)CC(O)=C(C(c2cccc(NS(=O)(=O)c3cccc4cccnc34)c2)C(C)(C)C)C(=O)O1 (stereo not shown) ?
Result: 96.63

* * *

- experimental_system: HIV-1 protease (Human immunodeficiency virus type 1 group M subtype B, UniProt P04585)
- test_method_notes: biochemical
- protocol_conditions: read-out: Protease % Inhib
Below, each entry is listed alongside its reported inhibition at 1.1 µM.
Write it as a number; the unit % goes unstated.

# compound, data_value
records = [
    ("CCCC1(CCc2ccccc2)CC(O)=C(C(CC)c2cccc(NS(=O)(=O)c3ccc(F)cc3)c2)C(=O)O1 (stereo not drawn) [Example 93A]", 104),
    ("CCCC1(CCc2ccccc2)CC(O)=C(C(CC)c2cccc(NS(=O)(=O)c3cccc4cccnc34)c2)C(=O)O1 (stereo not drawn)", 98.3),
    ("CCCC1(CCc2ccccc2)CC(O)=C(C(CC)c2cccc(NS(=O)(=O)c3ccc(C#N)cn3)c2)C(=O)O1 (stereo not drawn)", 99.1),
    ("Cn1cnc(S(=O)(=O)Nc2cccc(C(c3c(O)cc(C(CC4CC4)CC4CC4)oc3=O)C3CC3)c2)c1 (stereo not drawn)", 110),
    ("CCCCCC1(CCCCC)CC(O)=C(C(CC)c2cccc(NS(=O)(=O)c3cn(C)cn3)c2)C(=O)O1 (stereo not drawn)", 88.6),
    ("COCCOCCOCCOc1ccc2c(O)c(C(c3cccc(NS(=O)(=O)c4ccccn4)c3)C3CC3)c(=O)oc2c1 (stereo not drawn)", 99.5),
    ("O=c1oc(C(CC2CC2)CC2CC2)cc(O)c1C(c1cccc(NS(=O)(=O)c2ccc(F)cc2)c1)C1CC1 (stereo not drawn)", 107),
    ("O=c1oc2c(c(O)c1C(c1cccc(CS(=O)(=O)c3ccccc3)c1)C1CC1)CCCCCC2 (stereo not drawn)", 116),
    ("CCCC1(CCc2ccccc2)CC(O)=C(C(CC)c2cccc(NS(=O)(=O)c3cn(C)cn3)c2)C(=O)O1 (stereo not drawn)", 104),
    ("COCCOCCOCCOc1ccc2c(O)c(C(c3cccc(NS(=O)(=O)c4cn(C)cn4)c3)C3CC3)c(=O)oc2c1 (stereo not drawn)", 118),
]

Request: What does the record list as inhibition at 1.1 µM for CCCC1(CCc2ccccc2)CC(O)=C(C(c2cccc(NS(=O)(=O)c3ccc(C#N)cn3)c2)C(C)(C)C)C(=O)O1 (stereo not drawn) ?
Result: 97.7

Request: What does the record list as inhibition at 1.1 µM for COc1ccc2c(O)c(C(c3cccc(NS(=O)(=O)c4cn(C)cn4)c3)C3CC3)c(=O)oc2c1 (stereo not drawn) ?
Result: 95.8
